Cited source for all entries: ChEMBL document CHEMBL1128560

Experiment: Inhibition of glyceraldehyde-3-phosphate dehydrogenase in Trypanosoma brucei
Items are presented alongside their recorded IC50.

// worked examples, IC50 included
Molecule	IC50
CC(C)COC(=O)N[C@@H]1[C@H](O)[C@@H](CO)O[C@H]1n1cnc2c(N)ncnc21	> 10 mM
Nc1ncnc2c1ncn2[C@@H]1CCC[C@H]1NC(=O)c1cccc(Cl)c1	> 4 mM
Nc1ncnc2c1ncn2[C@@H]1O[C@H](CO)[C@@H](O)[C@H]1NCc1ccccc1	> 10 mM
Nc1ncnc2c1nc(SC1CCCCC1)n2C1O[C@H](CO)[C@@H](O)[C@H]1O (stereo partly specified)	> 1 mM
COc1cccc(C(=O)N[C@@H]2[C@H](O)[C@@H](CO)O[C@H]2n2cnc3c(N)nc(C)nc32)c1	> 10 mM

Param item = `Nc1ncnc2c1ncn2CCNC(=O)c1cccc(F)c1` ; retrieve measured IC50. > 4 mM

Given `Nc1ncnc2c1ncn2[C@@H]1CCC[C@H]1NC(=O)c1ccccc1` , state its recorded IC50. > 4 mM
